Biological target: 3-hydroxy-3-methylglutaryl-coenzyme A reductase (Rattus norvegicus)
Sequence (P51639 whole entry): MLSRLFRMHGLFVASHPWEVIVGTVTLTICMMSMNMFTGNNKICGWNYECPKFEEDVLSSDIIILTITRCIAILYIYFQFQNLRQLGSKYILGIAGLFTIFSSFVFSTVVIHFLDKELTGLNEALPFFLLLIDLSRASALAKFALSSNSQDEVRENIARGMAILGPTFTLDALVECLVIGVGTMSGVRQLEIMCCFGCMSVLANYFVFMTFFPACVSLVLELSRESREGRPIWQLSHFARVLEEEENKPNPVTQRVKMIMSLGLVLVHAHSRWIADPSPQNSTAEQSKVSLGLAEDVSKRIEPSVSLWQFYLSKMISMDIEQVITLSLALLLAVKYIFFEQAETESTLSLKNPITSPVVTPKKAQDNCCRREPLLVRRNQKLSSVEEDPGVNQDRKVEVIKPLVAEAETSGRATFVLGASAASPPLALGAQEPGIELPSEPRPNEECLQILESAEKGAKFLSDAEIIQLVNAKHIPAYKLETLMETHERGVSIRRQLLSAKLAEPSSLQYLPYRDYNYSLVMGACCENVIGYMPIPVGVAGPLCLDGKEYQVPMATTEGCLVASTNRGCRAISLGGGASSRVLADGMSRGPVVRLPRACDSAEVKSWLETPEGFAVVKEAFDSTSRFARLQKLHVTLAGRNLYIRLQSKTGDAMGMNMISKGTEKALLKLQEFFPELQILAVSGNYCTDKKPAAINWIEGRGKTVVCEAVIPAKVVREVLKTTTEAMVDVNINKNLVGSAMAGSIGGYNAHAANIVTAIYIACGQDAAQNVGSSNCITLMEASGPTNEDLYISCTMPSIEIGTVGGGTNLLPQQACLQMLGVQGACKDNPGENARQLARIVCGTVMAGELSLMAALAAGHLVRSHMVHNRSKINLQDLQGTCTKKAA
Note to self: IC50 under 20 nM means 1, ties and anything higher get -1.

Answered cases to consult:
{"entry smiles": "COCc1cccc(CNC(=O)c2nn(-c3ccc(F)cc3)c(OC[C@@H](O)C[C@@H](O)CC(=O)O)c2C(C)C)c1", "discrete label": -1}
{"entry smiles": "Cc1cccc(CNC(=O)c2nn(-c3ccc(F)cc3)c(OC[C@@H](O)C[C@@H](O)CC(=O)O)c2C(C)C)c1", "discrete label": 1}
{"entry smiles": "CC(C)c1c(C(=O)NCc2cccc(Cl)c2)nn(-c2ccc(F)cc2)c1OC[C@@H](O)C[C@@H](O)CC(=O)O", "discrete label": 1}
{"entry smiles": "Cc1ccc(CNC(=O)c2nn(-c3ccc(F)cc3)c(OC[C@@H](O)C[C@@H](O)CC(=O)O)c2C(C)C)cc1", "discrete label": 1}
{"entry smiles": "CC(C)c1c(C(=O)N(C)Cc2ccc(F)cc2)nn(-c2ccc(F)cc2)c1OC[C@@H](O)C[C@@H](O)CC(=O)O", "discrete label": 1}

Lab note: next compound to report on.
Input line: Lab note: confirm whether the reported IC50 for this compound is below 20 nM, equality not counting. compound: COc1ccc(CNC(=O)c2nn(-c3ccc(F)cc3)c(OC[C@@H](O)C[C@@H](O)CC(=O)O)c2C(C)C)cc1
Output line: 1

Measured values drawn from ChEMBL document CHEMBL1139802 for this set.
